meta.source: ChEMBL document CHEMBL3039007

- Measured On: Solute carrier organic anion transporter family member 1B3 (Homo sapiens)
- Measurement Conditions: chinese hamster, cho, 10 µM
// label = yes (1) if residual activity is not less than 90%, otherwise no (0)

Problem: Does the reported residual activity for CCOC(=O)C(=O)C1(C(=O)OCC)Oc2cc(OC)cc(OC)c2C(=O)C1c1ccccc1 (configuration not stated) fall at or above the 90% mark?
Result: yes (1)

Problem: # iterate: `CCc1cn([C@H]2C[C@H](O)[C@@H](CO)O2)c(=O)[nH]c1=O`
Result: yes (1)

Problem: Same lookup for `C=C(C)c1cc2cc(C(C)=O)c(O)cc2o1` , please.
Result: yes (1)

Problem: Query `CC(C)CCC[C@@H](C)[C@H]1CC[C@H]2[C@@H]3CC(=O)[C@H]4C[C@@H](O)CC[C@]4(C)[C@H]3CC[C@]12C` next
Result: yes (1)

Problem: Please answer likewise for `O=C(CC[N+](=O)[O-])OC[C@H]1O[C@@H](O)[C@H](OC(=O)CC[N+](=O)[O-])[C@@H](OC(=O)CC[N+](=O)[O-])[C@@H]1OC(=O)CC[N+](=O)[O-]`
Result: no (0)

----------
- Measured On: Solute carrier organic anion transporter family member 1B1 (Homo sapiens)
- Measurement Conditions: chinese hamster, cho, 10 µM
Assay Metric: residual activity (%)
Write down the numeric answer in % and omit the unit.

Problem: Name the reported residual activity value associated with the compound `CC1=CC(=O)C(C(C)C)=CC1=O`
Result: 126.4

Problem: What do you get for CNc1ccc(C(=O)CC(O)CCC(C)C2OC(=O)CC(O)CC(=O)CC(O)CC(O)CC(O)CC(O)CC3(O)CC(O)C(C(=O)OC)C(CC(O[C@@H]4O[C@H](C)[C@@H](O)[C@H](N)[C@@H]4O)/C=C/C=C/C=C/C=C/C=C/C=C/C=C/C2C)O3)cc1.COC(=O)C1C(O)CC2(O)CC(O)CC(O)CC(O)CC(O)CC(=O)CC(O)CC(=O)OC(C(C)CCC(O)CC(=O)c3ccc(N)cc3)C(C)/C=C/C=C/C=C/C=C/C=C/C=C/C=C/C(O[C@@H]3O[C@H](C)[C@@H](O)[C@H](N)[C@@H]3O)CC1O2 (stereo not given in full) ?
Result: 95.55

Problem: Please give the result for `O=C1CC[C@]23/C=C/C(=O)NCCCCNCCCNC(=O)/C=C\c4ccc(c2c4)O[C@@H]3C1` too.
Result: 70.42

Problem: CNCCCN1c2ccccc2CCc2ccccc21.Cl [DESIPRAMINE HYDROCHLORIDE] ?
Result: 55.55

Problem: Request: CN(Cc1cc(Br)cc(Br)c1N)C1CCCCC1.Cl [BROMHEXINE HYDROCHLORIDE]
Result: 103.1

----------
- Measured On: Solute carrier organic anion transporter family member 1B3 (Homo sapiens, UniProt Q9NPD5)
- Sequence (Q9NPD5 whole entry): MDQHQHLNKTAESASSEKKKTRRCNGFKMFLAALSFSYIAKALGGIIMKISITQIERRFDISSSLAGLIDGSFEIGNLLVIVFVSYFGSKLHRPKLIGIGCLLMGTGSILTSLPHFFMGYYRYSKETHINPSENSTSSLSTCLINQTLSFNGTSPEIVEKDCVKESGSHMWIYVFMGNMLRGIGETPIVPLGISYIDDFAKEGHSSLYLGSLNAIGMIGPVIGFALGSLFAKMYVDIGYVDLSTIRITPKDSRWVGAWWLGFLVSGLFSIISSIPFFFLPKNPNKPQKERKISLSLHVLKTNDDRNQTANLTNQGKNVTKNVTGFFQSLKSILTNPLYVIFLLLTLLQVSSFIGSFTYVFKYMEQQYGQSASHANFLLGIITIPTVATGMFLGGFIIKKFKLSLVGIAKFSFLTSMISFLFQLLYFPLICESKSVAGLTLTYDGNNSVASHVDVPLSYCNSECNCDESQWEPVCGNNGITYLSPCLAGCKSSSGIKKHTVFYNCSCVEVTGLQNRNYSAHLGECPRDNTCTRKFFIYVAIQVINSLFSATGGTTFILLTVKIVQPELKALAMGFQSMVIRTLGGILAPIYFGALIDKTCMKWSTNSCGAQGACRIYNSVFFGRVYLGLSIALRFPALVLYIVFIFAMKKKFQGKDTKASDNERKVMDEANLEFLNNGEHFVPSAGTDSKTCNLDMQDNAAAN
- Measurement Conditions: chinese hamster, cho, 10 µM
Answer each item with its documented residual activity.
Just the number in %, nothing appended.

Problem: I have this molecule here, CC(=O)O[C@]1(C(C)=O)CC[C@H]2[C@@H]3C=C(Cl)C4=CC(=O)CC[C@]4(C)[C@H]3CC[C@@]21C [CHLORMADINONE ACETATE] , and I need its recorded residual activity.
Result: 24.36

Problem: Another molecule to check: O=C(O)c1cc(=O)c2ccccc2o1 [CHROMOCARB]
Result: 93

Problem: Record: CC(=O)OCC1=C(C(=O)[O-])N2C(=O)[C@@H](NC(=O)CSc3ccncc3)[C@H]2SC1.[Na+] [CEPHAPIRIN SODIUM]
Result: 94.33

Problem: Same thing, different molecule: C[C@]12CC[C@H](O)C[C@H]1CC[C@@H]1[C@@H]2[C@H](O)C[C@]2(C)[C@@H](C3=CC(=O)OC3)CC[C@]12O [SARMENTOGENIN]
Result: 105.8

Problem: What about CC(=O)O[C@H]1CC[C@@]2(C)C(=CC(=O)[C@H]3[C@@H]4CC[C@H]([C@H](C)CCCC(C)C)[C@@]4(C)CC[C@@H]32)C1 [7-OXOCHOLESTERYL ACETATE] ?
Result: 99.45

Problem: Same thing, different molecule: CCn1cc(C(=O)O)c(=O)c2cc(F)c(N3CCN(C)CC3)cc21.CS(=O)(=O)O [PEFLOXACIN MESYLATE]
Result: 95.74

Problem: Also, CC(C)[C@@H]1CC[C@@H](C)CC1=O [MENTHONE] please.
Result: 100.2

----------
- Measured On: Solute carrier organic anion transporter family member 1B1 (Homo sapiens, UniProt Q9Y6L6)
- Sequence (Q9Y6L6 whole entry): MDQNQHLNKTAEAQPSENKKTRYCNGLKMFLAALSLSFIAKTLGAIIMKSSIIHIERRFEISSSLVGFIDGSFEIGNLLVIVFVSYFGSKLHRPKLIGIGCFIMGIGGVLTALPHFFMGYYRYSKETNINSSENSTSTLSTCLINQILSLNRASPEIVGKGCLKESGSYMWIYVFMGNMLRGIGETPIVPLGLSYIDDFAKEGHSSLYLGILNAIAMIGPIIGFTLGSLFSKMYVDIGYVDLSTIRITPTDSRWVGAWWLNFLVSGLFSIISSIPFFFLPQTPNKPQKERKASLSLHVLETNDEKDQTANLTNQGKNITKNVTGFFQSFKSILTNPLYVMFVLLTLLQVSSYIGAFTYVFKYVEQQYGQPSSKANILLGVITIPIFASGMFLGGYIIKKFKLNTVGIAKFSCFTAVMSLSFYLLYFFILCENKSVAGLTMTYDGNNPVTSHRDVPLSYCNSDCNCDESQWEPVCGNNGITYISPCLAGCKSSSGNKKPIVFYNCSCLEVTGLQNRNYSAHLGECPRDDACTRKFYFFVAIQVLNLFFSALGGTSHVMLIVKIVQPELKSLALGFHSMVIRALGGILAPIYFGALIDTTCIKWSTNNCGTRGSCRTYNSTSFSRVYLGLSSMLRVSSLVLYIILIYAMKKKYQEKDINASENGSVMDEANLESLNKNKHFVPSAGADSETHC
- Measurement Conditions: chinese hamster, cho, 10 µM
Param threshold (90%) applies to residual activity; output Yes when value >= threshold, No when value < threshold.

Problem: Decide: is the reported value of residual activity for CCCCC(=O)O[C@H]1CC[C@H]2[C@@H]3CCc4cc(O)ccc4[C@H]3CC[C@]12C [ESTRADIOL VALERATE] equal to or greater than 90%?
Result: Yes

Problem: // repeat for C=C1CCC2C(CC2(C)C)C(=O)CCC1O (stereo not drawn) and report
Result: Yes

Problem: What about this molecule? CC(=O)Oc1ccc2c(c1)CCC1C2CC[C@]2(C)C(=O)CCC12 (stereo partly drawn) [ESTRONE ACETATE]
Result: Yes

Problem: Do the same for CC(N)C(=O)OC(C)(C)Cc1ccc(Cl)cc1 (stereo not drawn) [ALAPROCLATE] please
Result: No

----------
- Measured On: UniProtKB Q9NPD5
- Measurement Conditions: chinese hamster, cho, 10 µM
Provide the recorded residual activity for the entries that follow.
Give the number; % is assumed, so skip it.

Problem: residual activity lookup needed for C=CCCCCCCCCCCCC(O)CC(O)CO (stereo in doubt; form 1) [AVOCADENE] , thanks.
Result: 100.3

Problem: Please do the same for Cc1cc(O)c2c(c1)C(=O)c1cc(O)cc(O)c1C2=O [EMODIN] as well.
Result: 119.5

Problem: Query CN(N=O)C(=O)N[C@@H](C=O)[C@@H](O)[C@H](O)[C@H](O)CO [STREPTOZOCIN] next
Result: 100.3

Problem: Next up: `CC(=O)c1cc2c(cc1O)OC(C)(C)C=C2`
Result: 88.13

Problem: Another molecule to check: CC1=CC2C(CC1=O)C(C)=CCC2C(C)C (stereo not drawn) [MUUROLLADIE-3-ONE]
Result: 117.6

Problem: Param item: CC1(C)CC23C(=O)CCC(O)C2(C)CCC13 (stereo not drawn) [3-NOR-3-OXOPANASINSAN-6-OL]
Result: 112.2

Problem: Now give it for Cl.NNCc1ccccc1 [BENZYLHYDRAZINE HYDROCHLORIDE] too.
Result: 108.9

Problem: # iterate: CC(=O)OCC(=O)[C@@]1(O)CC[C@H]2[C@@H]3CC[C@H]4CC(OC(C)=O)CC[C@]4(C)[C@H]3C(=O)C[C@@]21C (stereo partly drawn)
Result: 97.61

Problem: Same question, CC(=O)[C@H]1CC[C@H]2[C@@H]3CCC4=CC(=O)CC[C@]4(C)[C@H]3CC[C@]12C [PROGESTERONE] this time
Result: 92

Problem: Same again, this time with COc1cc2c(cc1OC)[C@@H]1C(=O)c3ccc4c(c3O[C@@H]1CO2)C=CC(C)(C)O4 [DEGUELIN]
Result: 75.69

Problem: Next up: O=C(O)c1cc(O)c2cccc(O)c2n1 [XANTHURENATE]
Result: 99.4

Problem: Request: COc1ccc2c(c1)OC/C(=C/c1ccc(OC)c(OC)c1)C2=O [SAPPANONE A TRIMETHYL ETHER]
Result: 100.7

Problem: What would you report for CCCCN(CC)c1c([N+](=O)[O-])cc(C(F)(F)F)cc1[N+](=O)[O-] [BENFLURALIN] ?
Result: 100.4

Problem: Try this molecule next: C[C@H]1C(=O)O[C@@H]2CCN3CC=C(COC(=O)[C@](C)(O)[C@]1(C)O)[C@H]23 [MONOCROTALINE]
Result: 94.85

Problem: Here is the next molecule: CN(C)CCCN1c2ccccc2Sc2ccccc21.Cl [PROMAZINE HYDROCHLORIDE]
Result: 81.19

Problem: Proceed to CCOc1ccc(NC(C)=O)cc1 [PHENACETIN]
Result: 98.3

Problem: Could you do the same for COc1ccc2cc1Oc1ccc(cc1)C[C@H]1c3cc(c(OC)cc3CCN1C)Oc1c(OC)c(OC)cc3c1[C@H](C2)N(C)CC3 [FANCHININ] , please?
Result: 220.2

Problem: Next entry: CCC(=O)NCC[C@@H]1CCc2ccc3c(c21)CCO3 [RAMELTEON]
Result: 113.4

Problem: Can you handle `CC=CC(=O)N(CC)c1ccccc1C` next?
Result: 72.95

Problem: Also Cc1c(C(=O)O)c(O)cc2c1C(=O)c1c(O)c([C@@H]3O[C@H](CO)[C@@H](O)[C@H](O)[C@H]3O)c(O)c(O)c1C2=O [CARMINIC ACID] , if possible.
Result: 121.9

Problem: Same again, this time with CC(C(=O)O)c1ccc(C(=O)c2cccs2)cc1 (stereo not drawn) [SUPROFEN]
Result: 96.21

Problem: Try this molecule too: CC[C@H]1CN2CC[C@H]1C[C@@H]2[C@@H](O)c1ccnc2ccc(OC)cc12 [HYDROQUINIDINE]
Result: 96.11

Problem: Now the same for COc1cc(OC)c(-c2c(OC)cc(OC)cc2OC)c(OC)c1 [DIFUCOL HEXAMETHYL ETHER]
Result: 105.6

Problem: Now give it for COc1c2ccoc2nc2c(OC)c(OCC(O)C(C)(C)O)ccc12 (stereo not drawn) [EVOXINE] too.
Result: 94.63

Problem: Ok, now COc1c2ccoc2c(OC)c2oc(=O)ccc12 [ISOPIMPINELLIN]
Result: 29.02

Problem: Same lookup for `CN[C@@H]1[C@H](O)[C@H](NC)[C@H]2O[C@@]3(O)C(=O)C[C@@H](C)O[C@H]3O[C@@H]2[C@H]1O.Cl` , please.
Result: 96.23

Problem: // query: CCN(CCCc1ccccc1)CCCc1ccccc1.O=C(O)CC(O)(CC(=O)O)C(=O)O [ALVERINE CITRATE]
Result: 74.4

Problem: Now consider CCC(=O)O[C@H]1[C@H](O[C@@H]2[C@@H](C)[C@H](O[C@H]3C[C@@](C)(OC)[C@@H](O)[C@H](C)O3)[C@@H](C)C(=O)O[C@H](CC)[C@@](C)(O)[C@H](O)[C@@H](C)C(=O)[C@H](C)C[C@@]2(C)O)O[C@H](C)C[C@@H]1N(C)C.CCCCCCCCCCCCOS(=O)(=O)O [ERYTHROMYCIN ESTOLATE] and answer again.
Result: 7.433

Problem: # repeat for NC(=O)c1cnccn1 [PYRAZINAMIDE]
Result: 116.6

Problem: Now the molecule N=C(N)NC(=O)c1nc(Cl)c(N2CCCCCC2)nc1N [N,N-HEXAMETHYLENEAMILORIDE]
Result: 162.9

Problem: // same read-out, input: COc1ccc2c(c1)CC[C@@H]1[C@@H]2CC[C@]2(C)[C@@H](O)CC[C@@H]12 [ESTRADIOL METHYL ETHER]
Result: 110

Problem: Then O=C(O)c1ccc(S(=O)(=O)N(Cl)Cl)cc1 [HALAZONE] ?
Result: 84.35

Problem: How about this molecule: Cn1c(=O)[nH]c(=O)c2[nH]cnc21 [3-METHYLXANTHINE]
Result: 95.53
